target: delta (DOP) (h) (Homo sapiens, UniProt P41143); construct: purchased Eurofins Cerep (SafetyScreen44), recognised from the panel format; test: In vitro CEREP profiling, delta (DOP) (h) (agonist radioligand); type: binding; settings: test compound concentration 10 uM
Sequence (P41143 whole entry): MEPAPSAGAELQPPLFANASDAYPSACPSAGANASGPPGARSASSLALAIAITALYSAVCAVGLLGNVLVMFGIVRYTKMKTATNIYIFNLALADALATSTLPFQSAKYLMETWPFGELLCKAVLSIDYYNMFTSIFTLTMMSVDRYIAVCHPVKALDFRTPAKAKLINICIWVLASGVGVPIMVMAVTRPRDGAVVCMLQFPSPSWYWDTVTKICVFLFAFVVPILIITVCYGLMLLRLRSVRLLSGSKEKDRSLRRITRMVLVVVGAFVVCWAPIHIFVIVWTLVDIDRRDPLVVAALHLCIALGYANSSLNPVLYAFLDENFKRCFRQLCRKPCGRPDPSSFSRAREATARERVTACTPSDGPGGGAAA
Label label 1 when perc_inhibition (% inhibition of the binding of a ligand specific for each target) is at or above 50%; anything below gets label 0.

- compound-structure: "COc1ccc([C@H](Cc2nnn[nH]2)NC(=O)c2ncnc3[nH]ccc23)cc1"
  qualitative-label: "label 0"
- compound-structure: "CNCc1cc(-c2cc3c(N[C@@H](c4ccc5c(c4)S(=O)(=O)CCC5)C(C)C)ncnc3[nH]2)co1"
  qualitative-label: "label 1"
- compound-structure: "CC(C)[C@H](Nc1ncnc2[nH]c(-c3cnn(C)c3C#N)cc12)c1ccc2c(n1)OCCO2"
  qualitative-label: "label 1"
- compound-structure: "Cn1ncc(-c2cc3c(N[C@@H](c4ccc5c(n4)OCCO5)C(C)(C)C)ncnc3[nH]2)c1C#N"
  qualitative-label: "label 0"
- compound-structure: "C[C@H](C(=O)O)[C@@H](NC(=O)c1ncnc2[nH]ccc12)c1ccc(Br)cc1"
  qualitative-label: "label 0"
- compound-structure: "CC(C)[C@@H](Nc1ncnc2[nH]c(-c3cnn(C)c3C#N)cc12)c1ccc2c(n1)OCCO2"
  qualitative-label: "label 1"
- compound-structure: "CC(C)[C@H](Nc1ncnc2[nH]ccc12)c1ccc2c(c1)S(=O)(=O)CCC2"
  qualitative-label: "label 0"

----------
target: SARS-CoV-2 nsp3-mac1 (Severe acute respiratory syndrome coronavirus 2, UniProt P0DTD1); assay: biochemical; assay type: biochemical; conditions: SARS-CoV-2 nsp3 macrodomain TR-FRET single point, concentration 50.0 uM
Recorded perc_inhibition_mean by entry
measured-quantity: perc_inhibition_mean (%)

- compound: "O=C(Nc1ccccc1)Nc1ccc(C(=O)NC2c3cccc(O)c3CC2C(=O)O)cc1 (stereo not drawn)"
  measured-quantity: "perc_inhibition_mean"
  recorded-result: 99.903
- compound: "Cc1ncc(NCc2cc3n(n2)CCOC3)cc1C(N)=O"
  measured-quantity: "perc_inhibition_mean"
  recorded-result: 0.46
- compound: "CCO[C@@H]1C[C@@H](Nc2ncnc3[nH]ccc23)C12CCOCC2"
  measured-quantity: "perc_inhibition_mean"
  recorded-result: 2.316
- compound: "Cn1cnc2c(Nc3cncc(CN)c3)nc(N)nc21"
  measured-quantity: "perc_inhibition_mean"
  recorded-result: -14.217
- compound: "c1coc(CNc2ncnc3[nH]cnc23)c1"
  measured-quantity: "perc_inhibition_mean"
  recorded-result: 2.634
- compound: "c1ccc(OC[C@@H]2CCCN2c2ncnc3[nH]ccc23)cc1"
  measured-quantity: "perc_inhibition_mean"
  recorded-result: -0.466
- compound: "c1ccc2sc([C@@H]3CCCN(c4ncnc5[nH]ccc45)C3)nc2c1"
  measured-quantity: "perc_inhibition_mean"
  recorded-result: -0.779
- compound: "CN1CCOc2cccc(NC(=O)Nc3cnc4[nH]ncc4c3)c21"
  measured-quantity: "perc_inhibition_mean"
  recorded-result: -6.537
- compound: "O=C(Cn1c(=O)[nH]c2ccccc21)Nc1cnc2[nH]ncc2c1"
  measured-quantity: "perc_inhibition_mean"
  recorded-result: 1.776

----------
// perc_inhibition (% inhibition of the binding of a ligand specific for each target) lookup, one value per entry
biological target: beta1 (h) (Homo sapiens, UniProt P08588); construct: purchased Eurofins Cerep (SafetyScreen44), recognised from the panel format; test: In vitro CEREP profiling, beta1 (h) (agonist radioligand); type: binding; details: test compound 10 uM
Sequence (P08588 whole entry): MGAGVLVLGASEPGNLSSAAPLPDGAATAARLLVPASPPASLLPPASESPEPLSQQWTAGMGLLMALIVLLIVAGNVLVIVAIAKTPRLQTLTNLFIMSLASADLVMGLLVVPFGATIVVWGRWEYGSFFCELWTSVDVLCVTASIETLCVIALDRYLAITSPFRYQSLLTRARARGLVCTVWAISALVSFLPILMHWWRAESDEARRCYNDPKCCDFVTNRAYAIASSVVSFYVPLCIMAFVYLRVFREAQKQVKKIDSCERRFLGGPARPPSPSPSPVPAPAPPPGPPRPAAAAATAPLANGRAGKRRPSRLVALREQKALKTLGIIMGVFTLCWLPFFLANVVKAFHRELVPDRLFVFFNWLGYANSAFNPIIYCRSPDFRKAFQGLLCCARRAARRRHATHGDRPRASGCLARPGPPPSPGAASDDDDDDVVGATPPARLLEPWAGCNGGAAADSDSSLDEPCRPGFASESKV
measured-quantity: perc_inhibition (% inhibition of the binding of a ligand specific for each target)

- molecule: "CC(C)[C@@H](Nc1ncnc2[nH]c(-c3cnn(C)c3C#N)cc12)c1ccc2c(n1)OCCO2 [ASAP-0010716]"
  recorded-result: "-2%"
- molecule: "COc1ccc([C@H](Cc2nnn[nH]2)NC(=O)c2ncnc3[nH]ccc23)cc1 [ASAP-0015381]"
  recorded-result: "-3%"
- molecule: "Cn1ncc(-c2cc3c(N[C@@H](c4ccc5c(n4)OCCO5)C(C)(C)C)ncnc3[nH]2)c1C#N [ASAP-0011221]"
  recorded-result: "11%"
- molecule: "CC(C)[C@H](Nc1ncnc2[nH]ccc12)c1ccc2c(c1)S(=O)(=O)CCC2 [ASAP-0008674]"
  recorded-result: "11%"
- molecule: "C[C@H](C(=O)O)[C@@H](NC(=O)c1ncnc2[nH]ccc12)c1ccc(Br)cc1 [ASAP-0014722]"
  recorded-result: "-5%"
- molecule: "CC(C)[C@H](Nc1ncnc2[nH]c(-c3cnn(C)c3C#N)cc12)c1ccc2c(n1)OCCO2 [ASAP-0010715]"
  recorded-result: "11%"
- molecule: "CNCc1cc(-c2cc3c(N[C@@H](c4ccc5c(c4)S(=O)(=O)CCC5)C(C)C)ncnc3[nH]2)co1 [ASAP-0011176]"
  recorded-result: "-4%"

----------
This section presents molecules with their documented perc_free values.
assay: Protein binding; assay type: in vitro ADME; details: In vitro human plasma protein binding
measured-quantity: perc_free (%)

- compound-structure: "CC(C)[C@H](Nc1ncnc2[nH]ccc12)c1ccc2c(c1)S(=O)(=O)CCC2"
  recorded-result: 14.4
- compound-structure: "CNCc1cc(-c2cc3c(N[C@@H](c4ccc5c(c4)S(=O)(=O)CCC5)C(C)C)ncnc3[nH]2)co1"
  recorded-result: 8.01
- compound-structure: "C[C@H](C(=O)O)[C@@H](NC(=O)c1ncnc2[nH]ccc12)c1ccc(Br)cc1"
  recorded-result: 2.6
- compound-structure: "CC(C)[C@H](Nc1ncnc2[nH]c(-c3cnn(C)c3C#N)cc12)c1ccc2c(n1)OCCO2"
  recorded-result: 0.541
- compound-structure: "CC(C)[C@@H](Nc1ncnc2[nH]c(-c3cnn(C)c3C#N)cc12)c1ccc2c(n1)OCCO2"
  recorded-result: 0.507
- compound-structure: "Cn1ncc(-c2cc3c(N[C@@H](c4ccc5c(n4)OCCO5)C(C)(C)C)ncnc3[nH]2)c1C#N"
  recorded-result: 0.571
- compound-structure: "COc1ccc([C@H](Cc2nnn[nH]2)NC(=O)c2ncnc3[nH]ccc23)cc1"
  recorded-result: 1.01

----------
target: SARS-CoV-2 nsp3-mac1 (Severe acute respiratory syndrome coronavirus 2, UniProt P0DTD1); assay: biochemical; type: biochemical; details: SARS-CoV-2 nsp3 macrodomain TR-FRET single point; concentration 99.5 uM
compounds and their reported perc_inhibition_mean
measured-quantity: perc_inhibition_mean (%)

- compound-structure: "Cn1cc([C@@H](Nc2ncnc3[nH]ccc23)c2ccccc2)cn1"
  measured-quantity: "perc_inhibition_mean"
  recorded-result: 39.262
- compound-structure: "C[C@@]1(C(N)=O)CCCN1C(=O)c1cnn2ccc(C3CCN(C(=O)c4ccccc4)CC3)cc12"
  measured-quantity: "perc_inhibition_mean"
  recorded-result: 10.386
- compound-structure: "O=C(c1c[nH]nn1)N1CCC(c2ccn3ncc(C(=O)N4CCCCC4)c3c2)CC1"
  measured-quantity: "perc_inhibition_mean"
  recorded-result: 25.652
- compound-structure: "O=C(c1ccnc(S)c1)N1CCC(c2ccn3ncc(C(=O)N4CCCCC4)c3c2)CC1"
  measured-quantity: "perc_inhibition_mean"
  recorded-result: 35.496
- compound-structure: "O=C(NC[C@@H]1CCCCN1)c1cnn2ccc(C3CCN(C(=O)c4ccccc4)CC3)cc12"
  measured-quantity: "perc_inhibition_mean"
  recorded-result: -2.573

----------
assay: Hepatic microsomal stability, MLM; type: in vitro ADME; conditions: In vitro mouse liver microsomal stability

- compound: "CC(C)[C@H](Nc1ncnc2[nH]c(-c3cnn(CC(N)=O)c3)cc12)c1ccc2c(c1)OCCO2 [ASAP-0008449]"
  t_half, min: 103.7
- compound: "CC(C)[C@H](Nc1ncnc2[nH]c(-c3cnn(C)c3C#N)cc12)c1ccc2c(c1)S(=O)(=O)CCC2 (single isomer, unassigned) [ASAP-0011144]"
  t_half, min: 5.4
- compound: "CNC(=O)Cn1cc(-c2cc3c(NC(c4ccc5c(c4)OCCO5)C(C)C)ncnc3[nH]2)cn1 (stereo not drawn) [ASAP-0008565]"
  t_half, min: 35.7
- compound: "Cc1nn(C)cc1-c1cc2c(N[C@H](c3ccc4c(c3)S(=O)(=O)CCC4)C(C)C)ncnc2[nH]1 (single isomer, unassigned) [ASAP-0011448]"
  t_half, min: 4.3
- compound: "CC(C)(C)[C@H](Nc1ncnc2[nH]c(-c3cnn(CC(N)=O)c3)cc12)c1ccc2c(c1)OCCO2 (single isomer, unassigned) [ASAP-0012332]"
  t_half, min: 43.1
- compound: "CC(C)[C@H](Nc1ncnc2[nH]c(-c3cnn(C)c3C#N)cc12)c1ccc2c(c1)NC(=O)CO2 (single isomer, unassigned) [ASAP-0013255]"
  t_half, min: 20.7

----------
target: H2 (h) (Homo sapiens, UniProt P25021); construct: purchased Eurofins Cerep (SafetyScreen44), recognised from the panel format; experiment: In vitro CEREP profiling, H2 (h) (antagonist radioligand); type: binding; settings: test compound concentration 10 uM
Sequence (P25021 whole entry): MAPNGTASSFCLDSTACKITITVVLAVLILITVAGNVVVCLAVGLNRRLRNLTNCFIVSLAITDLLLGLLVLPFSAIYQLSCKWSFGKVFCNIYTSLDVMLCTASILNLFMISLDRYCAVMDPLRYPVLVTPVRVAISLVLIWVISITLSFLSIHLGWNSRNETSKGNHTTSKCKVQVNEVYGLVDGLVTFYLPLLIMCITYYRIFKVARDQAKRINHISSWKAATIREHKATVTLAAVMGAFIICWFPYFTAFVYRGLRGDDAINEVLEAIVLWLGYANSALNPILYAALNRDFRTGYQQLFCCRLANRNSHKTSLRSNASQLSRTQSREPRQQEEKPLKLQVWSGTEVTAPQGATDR
measured-quantity: perc_inhibition (% inhibition of the binding of a ligand specific for each target) (%)

- molecule: "CNCc1cc(-c2cc3c(N[C@@H](c4ccc5c(c4)S(=O)(=O)CCC5)C(C)C)ncnc3[nH]2)co1 [ASAP-0011176]"
  recorded-result: -3
- molecule: "CC(C)[C@H](Nc1ncnc2[nH]c(-c3cnn(C)c3C#N)cc12)c1ccc2c(n1)OCCO2 [ASAP-0010715]"
  recorded-result: -16
- molecule: "COc1ccc([C@H](Cc2nnn[nH]2)NC(=O)c2ncnc3[nH]ccc23)cc1 [ASAP-0015381]"
  recorded-result: -24
- molecule: "Cn1ncc(-c2cc3c(N[C@@H](c4ccc5c(n4)OCCO5)C(C)(C)C)ncnc3[nH]2)c1C#N [ASAP-0011221]"
  recorded-result: -10
- molecule: "CC(C)[C@H](Nc1ncnc2[nH]ccc12)c1ccc2c(c1)S(=O)(=O)CCC2 [ASAP-0008674]"
  recorded-result: -6
- molecule: "C[C@H](C(=O)O)[C@@H](NC(=O)c1ncnc2[nH]ccc12)c1ccc(Br)cc1 [ASAP-0014722]"
  recorded-result: -21
- molecule: "CC(C)[C@@H](Nc1ncnc2[nH]c(-c3cnn(C)c3C#N)cc12)c1ccc2c(n1)OCCO2 [ASAP-0010716]"
  recorded-result: -11
